Target: CRBN/DDB1 (Homo sapiens, UniProt Q96SW2)
Sequence (Q96SW2 whole entry, species assumed): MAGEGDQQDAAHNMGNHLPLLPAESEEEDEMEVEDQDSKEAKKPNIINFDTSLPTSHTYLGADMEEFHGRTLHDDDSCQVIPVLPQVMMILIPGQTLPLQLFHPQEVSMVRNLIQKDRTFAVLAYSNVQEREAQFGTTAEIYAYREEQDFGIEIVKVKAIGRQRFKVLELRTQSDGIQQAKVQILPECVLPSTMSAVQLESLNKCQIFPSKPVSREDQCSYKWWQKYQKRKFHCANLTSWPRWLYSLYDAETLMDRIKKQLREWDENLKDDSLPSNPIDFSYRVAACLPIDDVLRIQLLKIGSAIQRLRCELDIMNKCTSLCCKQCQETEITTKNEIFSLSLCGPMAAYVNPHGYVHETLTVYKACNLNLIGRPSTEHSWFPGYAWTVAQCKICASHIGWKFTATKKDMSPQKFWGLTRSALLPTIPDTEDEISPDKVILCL
Sequence (Q16531 whole entry partner, species assumed): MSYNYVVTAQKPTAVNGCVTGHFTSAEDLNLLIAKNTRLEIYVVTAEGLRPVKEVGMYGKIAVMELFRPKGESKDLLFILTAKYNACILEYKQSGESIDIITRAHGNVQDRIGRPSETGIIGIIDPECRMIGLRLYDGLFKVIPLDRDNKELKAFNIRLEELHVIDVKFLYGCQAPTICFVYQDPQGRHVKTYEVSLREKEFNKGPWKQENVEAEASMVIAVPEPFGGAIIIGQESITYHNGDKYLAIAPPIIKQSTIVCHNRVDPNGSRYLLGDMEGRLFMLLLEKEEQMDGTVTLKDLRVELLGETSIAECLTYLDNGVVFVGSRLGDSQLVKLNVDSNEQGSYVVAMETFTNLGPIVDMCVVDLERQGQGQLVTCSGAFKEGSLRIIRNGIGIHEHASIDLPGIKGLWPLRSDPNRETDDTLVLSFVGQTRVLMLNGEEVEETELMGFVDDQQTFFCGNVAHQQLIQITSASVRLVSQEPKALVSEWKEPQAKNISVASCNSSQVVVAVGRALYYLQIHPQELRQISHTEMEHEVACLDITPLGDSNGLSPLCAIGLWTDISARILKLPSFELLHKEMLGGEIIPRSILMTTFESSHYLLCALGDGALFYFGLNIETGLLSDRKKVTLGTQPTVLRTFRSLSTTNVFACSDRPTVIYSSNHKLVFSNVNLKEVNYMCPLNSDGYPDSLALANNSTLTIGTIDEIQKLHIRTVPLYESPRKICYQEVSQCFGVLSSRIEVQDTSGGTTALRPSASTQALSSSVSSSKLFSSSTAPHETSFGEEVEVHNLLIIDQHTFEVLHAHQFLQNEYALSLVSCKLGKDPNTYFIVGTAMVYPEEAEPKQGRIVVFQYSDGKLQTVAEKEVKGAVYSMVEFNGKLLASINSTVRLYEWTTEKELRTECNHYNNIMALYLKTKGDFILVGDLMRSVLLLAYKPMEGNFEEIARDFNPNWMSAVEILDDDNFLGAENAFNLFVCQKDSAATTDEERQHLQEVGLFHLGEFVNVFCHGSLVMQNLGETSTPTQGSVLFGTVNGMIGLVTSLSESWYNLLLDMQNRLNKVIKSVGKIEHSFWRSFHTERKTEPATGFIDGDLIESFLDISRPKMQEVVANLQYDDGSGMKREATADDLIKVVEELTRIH
Assay: HTRF binding assay (displacement of Cy5-thalidomide probe from CRBN/DDB1)
Settings: CRBN/DDB1 2.5 nM, Cy5-Thalidomide 100 nM, 30 min; geometric mean; read-out: HTRF_Thali_Disp_DR_geo_IC50
pIC50: −log10 of the molar value.
I'd be grateful if you could share measured pIC50 for these entries.

Query: Which pIC50 value belongs to COCc1cccc2c1CCN2C(=O)Nc1ccc2c(c1)CN(C1CCC(=O)NC1=O)C2=O (centres unmarked) ?
Response: 6.00 to 7.00

Query: Which pIC50 value belongs to C[C@@H]1Cc2c(F)cccc2N1C(=O)Nc1ccc2c(c1)CN(C1CCC(=O)NC1=O)C2=O (some centres unmarked) ?
Response: 6.00 to 7.00

Query: Which pIC50 value belongs to O=C1CCC(N2Cc3cc(NC(=O)N4c5ccccc5C[C@H]4COC(F)(F)F)ccc3C2=O)C(=O)N1 (some centres unmarked) ?
Response: 6.00 to 7.00

Query: Which pIC50 value belongs to COC[C@@H]1Cc2c(F)cccc2N1C(=O)Nc1ccc2c(c1)CN(C1CCC(=O)NC1=O)C2=O (some centres unmarked) ?
Response: 6.00 to 7.00

Query: Which pIC50 value belongs to O=C1CC[C@@H](N2Cc3cc(NC(=O)N4c5ccccc5C[C@H]4C(F)(F)F)ccc3C2=O)C(=O)N1 (single isomer, unassigned) ?
Response: < 6.00
